- target_desc: hα7-wt nAChR (Homo sapiens, UniProt P36544)
- Sequence (P36544 23-502): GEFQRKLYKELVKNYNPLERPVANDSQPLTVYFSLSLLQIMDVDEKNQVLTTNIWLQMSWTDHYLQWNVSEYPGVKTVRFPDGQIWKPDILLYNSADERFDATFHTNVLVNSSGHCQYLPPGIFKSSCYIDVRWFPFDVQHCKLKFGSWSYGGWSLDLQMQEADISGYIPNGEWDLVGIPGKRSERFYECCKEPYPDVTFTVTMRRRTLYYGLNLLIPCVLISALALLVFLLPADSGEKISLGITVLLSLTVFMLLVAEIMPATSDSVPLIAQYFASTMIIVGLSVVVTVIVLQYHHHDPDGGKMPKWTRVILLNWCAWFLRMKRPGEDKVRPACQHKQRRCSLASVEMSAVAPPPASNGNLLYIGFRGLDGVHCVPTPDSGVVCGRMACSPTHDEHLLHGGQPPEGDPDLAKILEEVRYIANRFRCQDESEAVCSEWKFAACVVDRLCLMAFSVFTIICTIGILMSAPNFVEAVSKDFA
- assay_notes: Ca2+ flux imaging (FDSS): potentiation of the choline response
- Assay type: cell-based
- measurement_setup: Ca2+ assay as described in D.1; potentiation of choline response, hα7-wt nAChR; read-out: Potency (pEC50) (converted)
In plain terms, low EC50, meaning strictly below 1000 nM, gives True, and everything else gives False.

Qu. hey, is EC50 for CCNC(=O)Cc1cc(Nc2ccc(F)c(F)c2)nn1-c1ccnc(C)c1 lower than 1000 nM or not?
Ans. False

Qu. Similarly, CC[C@@H](O)Cc1cc(Nc2ccc(F)c(F)c2)nn1-c1ccnc(C)c1 ?
Ans. True

Qu. Similarly, Cc1cc(-n2nc(Nc3cccc(Cl)c3F)cc2CC(=O)NC2CC2)ccn1 ?
Ans. False

Qu. Similarly, CNC(=O)Cc1cc(Nc2cc(OC)cc(C(F)(F)F)c2)nn1-c1ccnc(C)c1 ?
Ans. True

Qu. Similarly, COc1cc(Nc2cc(CC(=O)NC3CC3)n(-c3ccnc(C)c3)n2)cc(C(F)(F)F)c1 ?
Ans. True

Qu. Similarly, Cc1cc(-n2nc(Nc3cccc(OC(F)(F)F)c3)cc2CC(=O)NCC2CC2)cc(C)n1 ?
Ans. True

Qu. Similarly, COc1cc(Nc2cc(COCc3ccccc3)n(-c3ccnc(C)c3)n2)cc(C(F)(F)F)c1 ?
Ans. False

Qu. Similarly, CNC(=O)Cc1cc(Nc2cccc(Cl)c2F)nn1-c1ccnc(C)c1 ?
Ans. False

----------
- target_desc: hα7-wt nAChR (Homo sapiens)
- assay_notes: Patch-clamp current recording (whole-cell voltage clamp), potentiation of choline current and PAM type
- Assay type: cell-based
- Parameters: key: Type 0 compounds minimally enhance the effect size of the current elicited by 1 mM choline.; Type 1 compounds enhance the effect size of the current elicited by 1 mM choline but minimally alter the kinetics of the receptor.; Type 2 compounds enhance the effect size of the current elicited by 1 mM choline while reducing the rate and/or the extent of desensitization.; Type 3 compounds enhance the effect size of the current elicited by 1 mM choline. When tested at higher concentrations up to 10 μM they completely inhibit desensitization, in particular a 1 mM choline application of 250 milliseconds.; Type 4 compounds allow for an initial desensitization of the receptor followed by a re-opening of the receptor during agonist application
- measurement_setup: hα7-wt nAChR-expressing GH4C1 cells, 1 mM choline
assay_endpoint: PAM type
Keep it simple and answer with nothing but the number.

Qu. Param readout = PAM type; param system = hα7-wt nAChR (Homo sapiens); param query = Cc1cc(-n2nc(Nc3ccc(F)c(F)c3)cc2COCc2ccccc2)ccn1 ; response: value
Ans. 0

----------
- target_desc: hα7-wt nAChR (Homo sapiens)
- assay_notes: Ca2+ flux imaging (FDSS): potentiation of the choline response
- Format: cell-based
- measurement_setup: Ca2+ assay as described in D.1; potentiation of choline response, hα7-wt nAChR; read-out: % Efficacy
- Procedure: […] PAM activity was detected in real time by applying the compounds to be tested to the loaded cells along with a α7 nicotinic receptor agonist during constant monitoring of cellular fluorescence in a FDSS. […] A control response to choline was calculated on each plate from the difference in peak in fluorescence in wells receiving either choline or assay buffer alone. […]
In plain terms, low Emax, meaning strictly below 700%, gives yes (1), and everything else gives no (0).

Solved cases below.
Cc1cc(-n2nc(Nc3cccc(Cl)c3F)cc2CC#N)ccn1 yes (1)
COc1cc(Nc2cc(CC#N)n(-c3ccnc(C)c3)n2)cc(C(F)(F)F)c1 no (0)
CNC(=O)Cc1cc(Nc2cccc(OC(F)(F)F)c2)nn1-c1ccnc(C)c1 no (0)

Switching to the query record.
Qu. hey, is Emax for CC[C@H](O)Cc1cc(Nc2ccc(F)c(F)c2)nn1-c1ccnc(C)c1 lower than 700% or not?
Ans. no (0)

----------
- target_desc: hα7-wt nAChR (Homo sapiens)
- assay_notes: Ca2+ flux imaging (FDSS): potentiation of the choline response
- Format: cell-based
- measurement_setup: Ca2+ assay as described in D.1; potentiation of choline response, hα7-wt nAChR; read-out: Potency (pEC50) (converted)
In plain terms, low EC50, meaning strictly below 1000 nM, gives Satisfied, and everything else gives Not satisfied.

Solved cases below.
compound	class_assignment
CCNC(=O)Cc1cc(Nc2cccc(OC(F)(F)F)c2)nn1-c1ccnc(C)c1 [Compound 113]	Not satisfied
Cc1cc(-n2nc(Nc3cccc(OC(F)(F)F)c3)cc2COCc2ccccc2)ccn1 [Compound 122]	Satisfied
CCNC(=O)Cc1cc(Nc2ccc3c(c2)OC(F)(F)O3)nn1-c1ccnc(C)c1 [Compound 98]	Not satisfied
Cc1cc(-n2nc(Nc3cccc(Cl)c3F)cc2CC#N)ccn1 [Compound 63]	Not satisfied
COc1cc(Cl)cc(Nc2cc(CC(=O)NC3CCC3)n(-c3ccnc(C)c3)n2)c1 [Compound 83]	Satisfied

Qu. hey, is EC50 for Cc1cc(-n2nc(Nc3cccc(C(F)(F)F)c3)cc2CC(=O)NCC2CC2)ccn1 [Compound 47] lower than 1000 nM or not?
Ans. Satisfied

Qu. Similarly, CC[C@H](O)Cc1cc(Nc2cc(F)c(F)cc2F)nn1-c1ccnc(C)c1 [Compound 21] ?
Ans. Not satisfied

Qu. Similarly, CC[C@@H](O)Cc1cc(Nc2cccc(Cl)c2F)nn1-c1ccnc(C)c1 [Compound 59] ?
Ans. Satisfied

Qu. Similarly, CC[C@H](O)Cc1cc(Nc2cccc(Cl)c2F)nn1-c1ccnc(C)c1 [Compound 58] ?
Ans. Not satisfied

Qu. Similarly, Cc1cc(-n2nc(Nc3cccc(OC(F)(F)F)c3)cc2CC(=O)NC2CCC2)ccn1 [Compound 121] ?
Ans. Satisfied

Qu. Similarly, CCNC(=O)Cc1cc(Nc2cc(OC)cc(C(F)(F)F)c2)nn1-c1ccnc(C)c1 [Compound 45] ?
Ans. Satisfied

Qu. Similarly, Cc1cc(-n2nc(Nc3ccc(F)c(F)c3)cc2COCc2ccccc2)ccn1 [Compound 31] ?
Ans. Not satisfied

----------
PAM type overview
- target_desc: hα7-wt nAChR (Homo sapiens, UniProt P36544)
- assay_notes: Patch-clamp current recording (whole-cell voltage clamp), potentiation of choline current and PAM type
- Type: cell-based
- Design: key: Type 0 compounds minimally enhance the effect size of the current elicited by 1 mM choline.; Type 1 compounds enhance the effect size of the current elicited by 1 mM choline but minimally alter the kinetics of the receptor.; Type 2 compounds enhance the effect size of the current elicited by 1 mM choline while reducing the rate and/or the extent of desensitization.; Type 3 compounds enhance the effect size of the current elicited by 1 mM choline. When tested at higher concentrations up to 10 μM they completely inhibit desensitization, in particular a 1 mM choline application of 250 milliseconds.; Type 4 compounds allow for an initial desensitization of the receptor followed by a re-opening of the receptor during agonist application
- measurement_setup: hα7-wt nAChR-expressing GH4C1 cells, 1 mM choline
Keep it simple and answer with nothing but the number.

Some compounds with known PAM type results, for comparison:
CC[C@H](O)Cc1cc(Nc2ccc(F)c(F)c2)nn1-c1ccnc(C)c1 2
Cc1cc(-n2nc(Nc3cccc(Cl)c3F)cc2CC(=O)NC2CCC2)ccn1 2
CC[C@H](O)Cc1cc(Nc2ccc(F)c(F)c2F)nn1-c1ccnc(C)c1 1
CNC(=O)Cc1cc(Nc2cccc(Cl)c2F)nn1-c1ccnc(C)c1 2
Cc1cc(-n2nc(Nc3ccc4c(c3)OC(F)(F)O4)cc2CCCO)ccn1 2

Qu. Entry CC[C@H](O)Cc1cc(Nc2cccc(C(F)(F)F)c2)nn1-c1ccnc(C)c1 has what PAM type?
Ans. 2

Qu. Similarly, CNC(=O)Cc1cc(Nc2cc(Cl)cc(OC)c2)nn1-c1ccnc(C)c1 ?
Ans. 3

----------
- target_desc: hα7-wt nAChR (Homo sapiens, UniProt P36544)
- assay_notes: Patch-clamp current recording (whole-cell voltage clamp), potentiation of choline current and PAM type
- Type: cell-based
- Parameters: key: Type 0 compounds minimally enhance the effect size of the current elicited by 1 mM choline.; Type 1 compounds enhance the effect size of the current elicited by 1 mM choline but minimally alter the kinetics of the receptor.; Type 2 compounds enhance the effect size of the current elicited by 1 mM choline while reducing the rate and/or the extent of desensitization.; Type 3 compounds enhance the effect size of the current elicited by 1 mM choline. When tested at higher concentrations up to 10 μM they completely inhibit desensitization, in particular a 1 mM choline application of 250 milliseconds.; Type 4 compounds allow for an initial desensitization of the receptor followed by a re-opening of the receptor during agonist application
- measurement_setup: hα7-wt nAChR-expressing GH4C1 cells, 1 mM choline
- From the text: The compounds of the present invention are classified as type 0-4, based on qualitative kinetic properties, as determined by whole-cell voltage-clamp recordings. […] The compounds also have a potentiating effect on the response to choline when measured by whole-cell patch clamp electrophysiology in GH4C1 cells stably over-expressing the human wild-type α7 receptor. […]
assay_endpoint: PAM type
Keep it simple and answer with nothing but the number.

Some compounds with known PAM type results, for comparison:
Cc1cc(-n2nc(Nc3cccc(OC(F)(F)F)c3)cc2CC(=O)NC2CCC2)ccn1 2
CC[C@H](O)Cc1cc(Nc2cc(OC)cc(C(F)(F)F)c2)nn1-c1ccnc(C)c1 4
Cc1cc(-n2nc(Nc3cccc(OC(F)(F)F)c3)cc2CC(=O)NCC2CC2)cc(C)n1 2

Qu. Entry CC[C@@H](O)Cc1cc(Nc2cc(OC)cc(C(F)(F)F)c2)nn1-c1ccnc(C)c1 has what PAM type?
Ans. 2

Qu. Similarly, CCNC(=O)Cc1cc(Nc2cc(Cl)cc(OC)c2)nn1-c1ccnc(C)c1 ?
Ans. 4

Qu. Similarly, CC[C@H](O)Cc1cc(Nc2cccc(OC(F)(F)F)c2)nn1-c1ccnc(C)c1 ?
Ans. 2

Qu. Similarly, Cc1cc(-n2nc(Nc3ccc4c(c3)OC(F)(F)O4)cc2CCC(=O)N(C)C)ccn1 ?
Ans. 4

Qu. Similarly, CNC(=O)Cc1cc(Nc2cccc(C(F)(F)F)c2)nn1-c1ccnc(C)c1 ?
Ans. 4
